- experimental-system: T1, PUF4 RNA-binding domain (Saccharomyces cerevisiae, UniProt P25339 537-888)
- T1 sequence: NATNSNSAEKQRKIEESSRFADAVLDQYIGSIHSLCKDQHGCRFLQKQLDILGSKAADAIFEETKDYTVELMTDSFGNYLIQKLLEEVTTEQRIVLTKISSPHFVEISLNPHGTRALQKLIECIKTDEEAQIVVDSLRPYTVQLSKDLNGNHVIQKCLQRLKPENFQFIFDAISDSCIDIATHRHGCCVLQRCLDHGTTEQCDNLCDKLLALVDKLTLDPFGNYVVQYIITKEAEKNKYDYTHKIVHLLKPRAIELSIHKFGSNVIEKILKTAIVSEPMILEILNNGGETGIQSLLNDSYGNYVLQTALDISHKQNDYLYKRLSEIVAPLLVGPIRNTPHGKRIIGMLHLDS
- test-summary: Mg; RNA-MaP; 20 mM Na-HEPES pH 7.4, 30 mM KOAc, 0.75 mM MgCl2, 0.1% Tween-20, 5% glycerol, 0.1 mg/mL BSA, 2 mM DTT; 25 C; 0.0125-409.6 nM protein
- run-conditions: tags: N-His6-TEV cleaved; C-SNAP kept, Cy3B-labelled; label: tethered on chip by stalled RNA polymerase
pKd: −log10 of the molar value.
Values of pKd greater than or equal to 7 map to condition met; values below map to condition not met.

query: Form field: pKd at least 7? Entry: Id_ii_S2_P4E.3_K4.2_C4.2_[C-2G]_[T-1C]_H4.2_A4.1_F4.1_T4.2_[G10C]_[T11G] (ssRNA) RNA: UUUGAUUAAUAUGAUAUCGUUCUUUCUGCUAUAUAUUACGUUCUUUCUCGAUAUCAUAUUAAUCUUU
result: condition met

query: Form field: pKd at least 7? Entry: Id_ii_S2_P4E.2_K4.1_C4.2_H4.1_A4.1_F4.1_T4.2_[G10A]_[T11A] (ssRNA) RNA: UUUGAUUAAUAUGAUAUCGUUCUUUCUCUUGUAUAUUAAAUUCUUUCUCGAUAUCAUAUUAAUCUUU
result: condition met

query: Form field: pKd at least 7? Entry: ACAAACAUACACUAUUAACACAAAC (ssRNA) [Id_ii_S3_P4E.4_K4.3_C4.2_[C-2A]_H4.3_A4.1_F4.1_T4.2_[G10A]_[T11C]]
result: condition not met

query: Form field: pKd at least 7? Entry: UCUCUUAAACACUUAUUAAUUCUCUU (ssRNA) [Id_ii_S1_P5E.4_K5.3_C5.2_[C-2A]_[T-1A]_H5.3_A5.1_F5.1_T5.2_[T11A]_[A12T]]
result: condition not met

query: Form field: pKd at least 7? Entry: UCUCUUUGUAAAUCCGUCUCUU (ssRNA) [Ic_S1_P5E.1_K5.1_C5.1_H5.1_A5.1_[T5A]_[T6A]_[A7T]_F5.1_[T8C]_[T9C]_[A10G]_T5.1]
result: condition not met

query: Form field: pKd at least 7? Entry: ACAAACCUUGCCCUUUAUAUAUAACAAAC (ssRNA) [Ie_S3_P3E.2_K3.1_C3.2_H3.1_[+2CCCTT]_A3.1_F3.1_T3.2]
result: condition not met

query: Form field: pKd at least 7? Entry: Ib_S2_P5E.1_K5.1_C5.1_H5.1_[A4G]_A5.1_[T6C]_F5.1_T5.1 (ssRNA) RNA: UUUGAUUAAUAUGAUAUCGUUCUUUCUUGUGUCAUUAUUCUUUCUCGAUAUCAUAUUAAUCUUU
result: condition met

query: Form field: pKd at least 7? Entry: UCUCUUCCUGUAUAUUAAAUCUCUU (ssRNA) [Id_ii_S1_P4E.2_K4.1_C4.2_[T-1C]_H4.1_A4.1_F4.1_T4.2_[G10A]_[T11A]]
result: condition met

query: Form field: pKd at least 7? Entry: UCUCUUUGUAGCUUGUCUCUU (ssRNA) [Ic_S1_P4E.1_K4.1_C4.1_H4.1_A4.1_[T5G]_[A6C]_F4.1_[A9G]_T4.1]
result: condition not met

query: Form field: pKd at least 7? Entry: UCUCUUUGUAUACGGUCUCUU (ssRNA) [Ic_S1_P4E.1_K4.1_C4.1_H4.1_A4.1_[T7C]_F4.1_[T8G]_[A9G]_T4.1]
result: condition not met
